- STUDY_TARGET: RIPK1 (Homo sapiens, UniProt Q13546)
- Construct: endogenous in cells; host or cells: HT-29 (KCLB 30038)
- Sequence (Q13546 whole entry): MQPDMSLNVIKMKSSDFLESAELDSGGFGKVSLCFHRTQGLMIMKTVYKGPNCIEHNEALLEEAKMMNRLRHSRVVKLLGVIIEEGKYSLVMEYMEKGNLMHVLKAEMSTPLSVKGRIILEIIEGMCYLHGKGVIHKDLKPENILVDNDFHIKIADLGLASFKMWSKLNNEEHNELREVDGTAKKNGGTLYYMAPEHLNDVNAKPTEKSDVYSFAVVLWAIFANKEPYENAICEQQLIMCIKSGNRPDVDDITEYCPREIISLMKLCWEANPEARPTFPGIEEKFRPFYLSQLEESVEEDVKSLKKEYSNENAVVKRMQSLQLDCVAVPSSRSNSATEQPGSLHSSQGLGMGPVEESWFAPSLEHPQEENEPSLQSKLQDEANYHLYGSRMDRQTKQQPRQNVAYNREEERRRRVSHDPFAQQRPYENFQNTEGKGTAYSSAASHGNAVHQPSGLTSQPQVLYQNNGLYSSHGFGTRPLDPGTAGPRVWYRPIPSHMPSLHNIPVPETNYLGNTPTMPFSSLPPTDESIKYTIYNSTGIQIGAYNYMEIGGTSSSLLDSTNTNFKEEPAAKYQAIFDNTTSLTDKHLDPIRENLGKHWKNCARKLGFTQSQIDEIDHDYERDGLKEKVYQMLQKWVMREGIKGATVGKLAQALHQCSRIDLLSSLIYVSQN
- METHOD: Cell-based necroptosis assay for RIPK1 activity (cell viability by CCK-8)
- COND: HT-29 cells; Z-VAD-FMK 20 μM, human TNFα 10 ng/ml, SM-164 100 nM; 24 h; read-out: Cell-base RIPK1 activity: Necroptosis
pIC50: −log10 of the molar value.

{"CPD_SMILES": "CN1C(=O)[C@@H](NC(=O)n2cc(Cc3cccc(F)c3)cn2)COc2ccc(OCC#Cc3cccnc3)cc21", "pIC50": "> 8.00"}
{"CPD_SMILES": "CN1C(=O)[C@@H](NC(=O)n2cc(Cc3cccc(F)c3)cn2)COc2ccc(C(=O)N3CCNCC3)cc21", "pIC50": "< 7.30"}
{"CPD_SMILES": "CN1C(=O)[C@@H](NC(=O)n2cc(Cc3cccc(F)c3)cn2)COc2ccc(OCC(=O)N3CCC(O)CC3)cc21", "pIC50": "> 8.00"}
{"CPD_SMILES": "CN1C(=O)[C@@H](NC(=O)n2cc(Cc3cccc(F)c3)cn2)COc2ccc(C(=O)N3CCC(O)CC3)cc21", "pIC50": "7.30 to 8.00"}
